The reader will find GI50 measurements below, all made with A431 cancer cell.
READOUT_LABEL: GI50 (µg/mL)

COMPOUND	TARGET_OR_TEST_SYSTEM	GI50 (µg/mL)
COCC1COc2cc3ncnc(Nc4cccc(Br)c4)c3cc2O1 (stereo not drawn)	A431 cancer cell	0.24
Brc1cccc(Nc2ncnc3cc4c(cc23)OC(CN2CCOCC2)CO4)c1 (stereo not drawn)	A431 cancer cell	0.13
COCC1COc2cc3ncnc(Nc4cc(F)c(F)c(F)c4)c3cc2O1 (stereo not drawn)	A431 cancer cell	1.98

[I] COCC1COc2cc3ncnc(Nc4cc(Cl)cc(Cl)c4)c3cc2O1 (stereo not drawn)
[II] COCC1COc2cc3ncnc(Nc4cc(C)cc(C)c4)c3cc2O1 (stereo not drawn)
[III] COc1cc2ncnc(Nc3cccc(Br)c3)c2cc1OC [DP153035, reference compound]
[IV] COC[C@H]1Oc2cc3ncnc(Nc4cccc(I)c4)c3cc2O[C@@H]1COC
[V] Ic1cccc(Nc2ncnc3cc4c(cc23)OC(CN2CCOCC2)CO4)c1 (stereo not drawn)
Order by GI50, ascending. Please list each label once, in the requested order.
II, I, V, III, IV
(II: 0.06 µg/mL, I: 0.21 µg/mL, V: 0.38 µg/mL, III: 0.99 µg/mL, IV: 1.59 µg/mL)

----------
# TARGET_OR_TEST_SYSTEM: purified human EGFR kinase (Homo sapiens, UniProt P00533)
# Sequence (P00533 25-1210): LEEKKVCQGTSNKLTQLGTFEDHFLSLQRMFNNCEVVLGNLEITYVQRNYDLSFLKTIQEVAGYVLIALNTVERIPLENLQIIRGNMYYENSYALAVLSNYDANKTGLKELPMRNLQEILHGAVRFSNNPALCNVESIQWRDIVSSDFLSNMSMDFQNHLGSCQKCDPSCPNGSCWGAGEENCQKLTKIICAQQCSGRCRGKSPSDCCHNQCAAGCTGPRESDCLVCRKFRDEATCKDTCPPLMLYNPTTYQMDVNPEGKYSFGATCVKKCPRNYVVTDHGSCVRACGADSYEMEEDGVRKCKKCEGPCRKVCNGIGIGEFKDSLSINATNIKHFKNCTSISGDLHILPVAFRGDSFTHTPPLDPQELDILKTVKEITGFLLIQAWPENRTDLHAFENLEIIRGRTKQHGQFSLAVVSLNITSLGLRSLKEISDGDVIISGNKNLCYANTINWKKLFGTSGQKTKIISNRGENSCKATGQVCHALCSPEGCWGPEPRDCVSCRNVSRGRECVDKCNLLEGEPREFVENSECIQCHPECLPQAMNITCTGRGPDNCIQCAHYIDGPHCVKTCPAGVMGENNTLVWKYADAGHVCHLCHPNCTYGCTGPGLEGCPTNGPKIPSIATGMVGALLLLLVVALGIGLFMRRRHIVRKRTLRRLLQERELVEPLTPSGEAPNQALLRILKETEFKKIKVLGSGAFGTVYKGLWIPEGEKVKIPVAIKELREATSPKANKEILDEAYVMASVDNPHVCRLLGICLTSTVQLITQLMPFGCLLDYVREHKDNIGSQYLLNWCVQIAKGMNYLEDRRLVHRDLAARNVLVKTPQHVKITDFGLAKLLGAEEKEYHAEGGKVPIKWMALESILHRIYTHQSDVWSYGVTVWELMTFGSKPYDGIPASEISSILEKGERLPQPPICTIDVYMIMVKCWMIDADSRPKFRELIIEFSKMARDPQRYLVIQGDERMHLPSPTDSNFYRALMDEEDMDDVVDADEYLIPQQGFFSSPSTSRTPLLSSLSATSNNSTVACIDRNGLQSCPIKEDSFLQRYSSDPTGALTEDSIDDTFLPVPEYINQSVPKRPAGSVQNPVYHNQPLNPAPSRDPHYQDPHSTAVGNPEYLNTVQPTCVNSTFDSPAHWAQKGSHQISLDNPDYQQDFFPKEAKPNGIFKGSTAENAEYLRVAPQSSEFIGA
Counter-ions that a name gives are not always drawn.
READOUT_LABEL: IC50 (nM)

// solved cases for IC50 follow
COMPOUND	IC50 / nM
Brc1cccc(Nc2ncnc3cc4c(cc23)OC(CN2CCOCC2)CO4)c1 (stereo not drawn) [Example 31, hydrochloride]	101
OCCN(CCO)CC1COc2cc3ncnc(Nc4cccc(Br)c4)c3cc2O1 (stereo not drawn) [Example 33, hydrochloride]	44.9

[A] COCC1COc2cc3ncnc(Nc4cc(F)c(F)c(F)c4)c3cc2O1 (stereo not drawn)
[B] OCCNCC1COc2cc3ncnc(Nc4cccc(Br)c4)c3cc2O1 (stereo not drawn) [Example 35, hydrochloride]
[C] CN1CCN(CC2COc3cc4ncnc(Nc5cccc(Br)c5)c4cc3O2)CC1 (stereo not drawn) [Example 37, hydrochloride]
[D] CN1CCN(CC2COc3cc4ncnc(Nc5cccc(Br)c5)c4cc3O2)CC1 (stereo not drawn) [Example 28]
Sort low-to-high on IC50, please. Please reply with the labels ordered as requested. Many thanks.
A, D, B, C

----------
Overview of recorded IC50 for various molecules
# TARGET_OR_TEST_SYSTEM: purified human EGFR kinase (Homo sapiens, UniProt P00533)

MOLECULE	IC50
COCC1COc2cc3ncnc(Nc4cc(C)cc(C)c4)c3cc2O1 (stereo not drawn)	> 285 nM
C#Cc1cccc(Nc2ncnc3cc4c(cc23)O[C@H](COC)[C@@H](COC)O4)c1	> 255 nM

// moving on: another record for IC50
Lab request: please report IC50 under test system purified human EGFR kinase (Homo sapiens, UniProt P00533) for CC(C)[C@H](CO)NCC1COc2cc3ncnc(Nc4cccc(Br)c4)c3cc2O1 (stereo partly drawn)
> 211 nM
